Test system: E. faecalis DS16 Thoeris system cloned into E. faecalis OG1RF
Test: Thoeris protection in liquid media, E. faecalis OG1RF:Thoeris + NPV1
Format: cell-based
Details: Enterococcus faecalis, read-out: IC50 (inhibition of type II Thoeris in E. faecalis OG1RF:Thoeris)
assayMetric: IC50 (mM)
Give just the numeric value; mM need not be written.

Exercise: Endpoint output: IC50 of NC(=O)c1cccnc1 [nicotinamide] . Value?
Key: 1.5

Exercise: Check NC(=O)c1ccc2nccn2c1 [IP6C, imidazo[1,2-a]pyridine-6-carboxamide] too.
Key: 8.2
